target: humanem Faktor Xa (Homo sapiens); construct: humanem Faktor Xa; purchased Boehringer Mannheim GmbH; experiment: Inhibition constants (Ki), chromogenic substrate Chromozym X, FXa; assay type: biochemical; conditions: pH 7.5, 25°C, 0.1 M phosphate buffer
Sequence (P00742 235-488 limits assumed): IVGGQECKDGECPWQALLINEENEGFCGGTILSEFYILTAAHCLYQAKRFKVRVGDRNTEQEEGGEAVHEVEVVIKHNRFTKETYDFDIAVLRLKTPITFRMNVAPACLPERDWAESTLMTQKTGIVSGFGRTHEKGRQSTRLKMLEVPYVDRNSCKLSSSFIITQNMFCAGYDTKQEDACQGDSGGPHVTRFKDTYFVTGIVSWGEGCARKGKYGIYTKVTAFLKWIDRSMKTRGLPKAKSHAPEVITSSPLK
Sequence (P00742 41-179 partner limits assumed): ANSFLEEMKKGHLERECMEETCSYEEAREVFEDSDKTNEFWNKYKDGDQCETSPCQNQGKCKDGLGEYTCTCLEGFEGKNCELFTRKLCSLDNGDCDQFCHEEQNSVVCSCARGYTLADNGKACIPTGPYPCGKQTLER
quantity-name: Ki (µM)
Could you give me the number in µM? Just the number is fine.

Query: For the compound shown here, `COc1ccc(C(=O)Nc2ccccc2NC(=O)c2ccc(C(N)=S)cc2)cc1` , give the reported Ki.
Response: 0.05
